Target: Carbonic anhydrase 9 (Homo sapiens, UniProt Q16790)
Assay: Inhibition of recombinant human carbonic anhydrase 9 incubated for 15 mins prior to testing by stopped flow CO2 hydration assay
Measured Ki by item
Give a bare numeral; the unit nM is implied.

Study these solved cases before continuing.
Compound String: CN1C(=O)C(=NNC(=O)c2ccc(S(N)(=O)=O)cc2)c2ccccc21
Tgt: Carbonic anhydrase 9 (Homo sapiens, UniProt Q16790)
Ki (nM): 30.6

Compound String: NS(=O)(=O)c1ccc(C(=O)NN=C2C(=O)Nc3ccc(F)cc32)cc1
Tgt: Carbonic anhydrase 9 (Homo sapiens, UniProt Q16790)
Ki (nM): 32.3

Compound String: Cc1ccc2c(c1)C(=NNC(=O)c1ccc(S(N)(=O)=O)cc1)C(=O)N2
Tgt: Carbonic anhydrase 9 (Homo sapiens, UniProt Q16790)
Ki (nM): 197

Compound String: CC(C)N1C(=O)C(=NNC(=O)c2ccc(S(N)(=O)=O)cc2)c2ccccc21
Tgt: Carbonic anhydrase 9 (Homo sapiens, UniProt Q16790)
Ki (nM): 177

Compound String: NS(=O)(=O)c1ccc(C(=O)NN=C2C(=O)Nc3ccc(Br)cc32)cc1
Tgt: Carbonic anhydrase 9 (Homo sapiens, UniProt Q16790)
Ki (nM): 101

The molecule identified as COc1ccc2c(c1)C(=NNC(=O)c1ccc(S(N)(=O)=O)cc1)C(=O)N2 registered its Ki at 264

The value of Ki measured for the molecule CCCN1C(=O)C(=NNC(=O)c2ccc(S(N)(=O)=O)cc2)c2ccccc21 turned out to be 30.1

// NS(=O)(=O)c1ccc(C(=O)NN=C2C(=O)Nc3ccc([N+](=O)[O-])cc32)cc1 : Ki value = 23.8

Record summary for C=CCN1C(=O)C(=NNC(=O)c2ccc(S(N)(=O)=O)cc2)c2ccccc21 : reported Ki = 77.9

Summary for this molecule, NS(=O)(=O)c1ccc(C(=O)NN=C2C(=O)N(Cc3ccc(F)cc3)c3ccccc32)cc1 : Ki is 148

---

Target: Carbonic anhydrase 9 (Homo sapiens, UniProt Q16790)
Assay: Inhibition of recombinant human carbonic anhydrase 9 incubated for 15 mins prior to testing by stopped flow CO2 hydration assay
Readout Label: Ki

Recorded Ki (molecule NS(=O)(=O)c1ccc(C(=O)NN=C2C(=O)Nc3ccc(Cl)cc32)cc1 ): 31.5 nM

Ki recorded for this molecule, NS(=O)(=O)c1ccc(C(=O)NN=C2C(=O)N(Cc3ccccc3)c3ccccc32)cc1 , is 25.2 nM

---

Target: Carbonic anhydrase 9 (Homo sapiens, UniProt Q16790)
Experiment: Inhibition of recombinant human carbonic anhydrase 9 incubated for 15 mins prior to testing by stopped flow CO2 hydration assay
This section presents compounds with their documented Ki values.

Compound String: Cc1cc(C)c2c(c1)C(=NNC(=O)c1ccc(S(N)(=O)=O)cc1)C(=O)N2
Tgt: Carbonic anhydrase 9 (Homo sapiens, UniProt Q16790)
Readout Label: Ki
Obs Value: 0.716 µM

Compound String: CCOC(=O)CN1C(=O)C(=NNC(=O)c2ccc(S(N)(=O)=O)cc2)c2ccccc21
Tgt: Carbonic anhydrase 9 (Homo sapiens, UniProt Q16790)
Readout Label: Ki
Obs Value: 0.0177 µM

Compound String: Cc1ccc(CN2C(=O)C(=NNC(=O)c3ccc(S(N)(=O)=O)cc3)c3ccccc32)cc1
Tgt: Carbonic anhydrase 9 (Homo sapiens, UniProt Q16790)
Readout Label: Ki
Obs Value: 0.0812 µM

Item NS(=O)(=O)c1ccc(C(=O)NN=C2C(=O)Nc3ccccc32)cc1 ; assay system Carbonic anhydrase 9 (Homo sapiens, UniProt Q16790); Ki reported as 0.174 µM

Entry CCCCN1C(=O)C(=NNC(=O)c2ccc(S(N)(=O)=O)cc2)c2ccccc21 , Carbonic anhydrase 9 (Homo sapiens, UniProt Q16790) data, Ki value: 0.0274 µM

Value sought: Ki, system Carbonic anhydrase 9 (Homo sapiens, UniProt Q16790), item CCN1C(=O)C(=NNC(=O)c2ccc(S(N)(=O)=O)cc2)c2ccccc21 . Result: 0.0089 µM
